# TGT: Claudin18.2-His protein (human)
# EXPERIMENT: indirect ELISA on coated Claudin18.2-His
OUTCOME_MEASURE: EC50 (ng/mL)
Write the value in ng/mL as a bare number.

Quick one: EC50 of 196A12B10 (antibody, V domains shown) VH: QIQWVQSGPELKKPRETVKISCKASGYTFTDYSMHWVKQAPGKGLKWMGWINSETGEATYADDFRGRFALSLETSATTAFLQINSLKNEDTGTYFCARFYYGNSFASWGQGTTLTVSS VL: DIVMTQFPSSLTVTAGEKVTMTCKSSQSLLNGGNQKNYLTWYQQKPGLPPKLLIYWASTRESGVPDRFTGSGSGTEFTLTISSVQAEDLAVYYCQNNYYFPLTFGAGTKLELK ?
19.2

Also 252E7C9 (antibody, V domains shown) VH: QTYLQQSGAELVRSGASVKMSCRTSGYSFTSHNMHWVKQTPGQGLEWIGYIYPGNGGSYYNQKFKGKAILTADTSSSTAYMQISSLTSEDSAVYFCTRDYYGNSFVYWGQGTLVTVSA VL: DVVMTQSPSSLTEKTGEKVSMSCKSSQSLLNSGNQKNYLTWYQQKPGQPPKLLIYWASTRESGVPDRFTGSGSGTDFTLTISSLQTEDLAIYYCQNNFRYPFTFGAGTKLELK ?
8.69

Queued: 411B4G4 (antibody, V domains shown) VH: DVQLVESGGGLVQPGGSRKLSCAASGFTFSGFGLHWIRQTPEKGLEWVAYISSGSRPIYYADTVKGRFTISRDNPKNTLFLQMTSLRSEDTAMYFCARFYYGNSFDHWGQGTLVTVSA VL: DIVMTQSPSFLTVTAGEKVTMSCRSSQSLLNSGNQRNYLTWYQQKPGQPPKLLIYWASTRESGVPDRFTGSGSGTDFTLTISSVQAEDLALYYCQNAYSFPLTFGAGTKLELK
9.45
